System: CAPAN-1
Test: Cytotoxicity against human CAPAN-1 cells harboring KRAS G12V mutant cultured as 2D cells assessed as reduction in cell viability incubated for 120 hrs by CellTiter-Glo luminescence assay
Format: functional, cell-based
Conditions: CAPAN-1, 120 h
observed property: pEC50
By convention, pEC50 is the negative base-10 log of a molar concentration.

Examples with answers:
Please tell me: pEC50 of `CCn1c(-c2cc(N3CCN(C)CC3)cnc2[C@H](C)OC)c2c3cc(ccc31)-c1csc(n1)C[C@H](NC(=O)[C@H]1CCO1)C(=O)N1CCC[C@H](N1)C(=O)OCC(C)(C)C2` , system CAPAN-1? 7.85

Entry `CCn1c(-c2cccnc2[C@H](C)OC)c2c3cc(ccc31)-c1cccc(c1)C[C@H](NC(=O)[C@H](C(C)C)N(C)C(C)=O)C(=O)N1CCC[C@H](N1)C(=O)OCC(C)(C)C2` please 5.94

And what about the molecule `CCn1c(-c2cccnc2[C@H](C)OC)c2c3cc(ccc31)-c1csc(n1)C[C@H](NC(=O)[C@H](C(C)C)N(C)C(C)=O)C(=O)N1CCC[C@H](N1)C(=O)OCC(C)(C)C2` ? 6.83

Input `CCn1c(-c2cccnc2[C@H](C)OC)c2c3cc(ccc31)-c1csc(n1)C[C@H](NC(=O)[C@H](C(C)C)N(C)C(=O)N1CCC1)C(=O)N1CCC[C@H](N1)C(=O)OCC(C)(C)C2` 7.96

Entry `CCn1c(-c2cccnc2[C@H](C)OC)c2c3cc(ccc31)-c1csc(n1)C[C@H](NC(=O)[C@H](C(C)C)N(C)C(=O)N(C)C)C(=O)N1CCC[C@H](N1)C(=O)OCC(C)(C)C2` please 7.74

Continuing:
Any idea what pEC50 came out for `CCn1c(-c2cc(N3CC4CC(C3)N4C)cnc2[C@H](C)OC)c2c3cc(ccc31)-c1csc(n1)C[C@H](NC(=O)[C@H]1C[C@@H]1C)C(=O)N1CCC[C@H](N1)C(=O)OCC(C)(C)C2` on CAPAN-1? 8.68

Moving on to `CCn1c(-c2cc(N3CCN(C4CC4)CC3)cnc2[C@H](C)OC)c2c3cc(ccc31)-c1csc(n1)C[C@H](NC(=O)[C@H]1[C@@H]3COC[C@@H]31)C(=O)N1CCC[C@H](N1)C(=O)OCC(C)(C)C2` 8.68

Another molecule: `CCn1c(-c2cc(N3CCN(C4CC4)CC3)cnc2[C@H](C)OC)c2c3cc(ccc31)-c1csc(n1)C[C@H](NC(=O)[C@H]1C[C@@H]1C)C(=O)N1CCC[C@H](N1)C(=O)OCC(C)(C)C2` 8.09

Also `CCn1c(-c2cc(N3CCN(C4COC4)CC3)cnc2[C@H](C)OC)c2c3cc(ccc31)-c1csc(n1)C[C@H](NC(=O)[C@H]1C[C@@H]1C)C(=O)N1CCC[C@H](N1)C(=O)OCC(C)(C)C2` , if possible. 8.74

Would you kindly repeat that for `CCn1c(-c2cccnc2[C@H](C)OC)c2c3cc(ccc31)-c1cccc(c1)C[C@H](NC(=O)[C@H](C(C)C)N(C)C(=O)[C@H]1CCN(C(C)=O)C1)C(=O)N1CCC[C@H](N1)C(=O)OCC(C)(C)C2` ? 6.02

---

Quick reference: Papp A→B at 2 h, 5 µM of the listed items.
Test: Apparent permeability across apical to basolateral side in human Caco-2 cells at 5 uM incubated for 2 hrs by LC-MS/MS analysis
Assay type: ADME, cell-based
Provide the reading as a plain figure in ×10⁻⁶ cm/s.

The examples below pair each entry with its known result.
Look up Papp A→B at 2 h, 5 µM: `CCn1c(-c2cccnc2[C@H](C)OC)c2c3cc(ccc31)-c1csc(n1)C[C@H](NC(=O)[C@H](C(C)C)N(C)C(=O)N1CCC1)C(=O)N1CCC[C@H](N1)C(=O)OCC(C)(C)C2` 0.09

Entry `CCn1c(-c2cc(N3CCN(C)CC3)cnc2[C@H](C)OC)c2c3cc(ccc31)-c1csc(n1)C[C@H](NC(=O)[C@H]1[C@@H]3COC[C@@H]31)C(=O)N1CCC[C@H](N1)C(=O)OCC(C)(C)C2` please 0.3

Follow-up entry: `CCn1c(-c2cccnc2[C@H](C)OC)c2c3cc(ccc31)-c1csc(n1)C[C@H](NC(=O)C1CC1)C(=O)N1CCC[C@H](N1)C(=O)OCC(C)(C)C2` 4.3

What do we get for `CCn1c(-c2cccnc2[C@H](C)OC)c2c3cc(ccc31)-c1csc(n1)C[C@H](NC(=O)[C@H]1CCO1)C(=O)N1CCC[C@H](N1)C(=O)OCC(C)(C)C2` ? 3.1

// below: Papp A→B at 2 h, 5 µM requested for another molecule
If you can, please state the reported Papp A→B at 2 h, 5 µM value of `CCn1c(-c2cccnc2[C@H](C)OC)c2c3cc(ccc31)-c1csc(n1)C[C@H](NC(=O)[C@H](C(C)C)N(C)C(C)=O)C(=O)N1CCC[C@H](N1)C(=O)OCC(C)(C)C2` . 0.02
